The reader will find reported pIC50 values listed item by item below.
# Tested on: Human non-small cell lung cancer cells NCI-H1299
# Protocol details: NCI-H1299 cell proliferation inhibition (CellTiter-Glo)
# Assay type: cell-based
# Condition context: Homo sapiens, 72 h, cultured 3 days, table head NCI-H1975, method NCI-H1299
# Experimental: 2. Determination of Cell Proliferation Activity of Compounds: NCI-H1299 cell proliferation inhibition screening method was established using CellTiter-fib detection reagent from Promega. Human non-small cell lung cancer cells NCI-H1299 were cultured in 25 cm^2 or 75 cm^2 plastic tissue culture flasks (Corning) filled with DMEM (Gibco) medium supplemented with 10% fetal bovine serum (Hyclone) under 37° C., 95% air, and 5% CO2, and subcultured 2-3 times a week. […]
pIC50: −log10 of the molar value.

Molecule | pIC50
CS(C)(=O)=Nc1cccc(-n2c(C3CC3)cc3cnc(Nc4ccc(N5CC6CCC(C5)N6)c(F)c4)nc32)n1 [Example 101] | 7.18
CN1[C@@H]2CC[C@H]1CN(c1ccc(Nc3ncc4c(F)c(C5CC5)n(-c5cccc(N=S(C)(C)=O)n5)c4n3)cc1)C2 [Example 82] | 7.19
COc1cc(Nc2ncc3cc(C4CC4)n(-c4cccc(N=S(C)(C)=O)n4)c3n2)ccc1N1CCC(N2CCN(C)CC2)CC1 [Example 87] | 7.05
CN(C)CCN1CCN(c2ccc(Nc3ncc4cc(C5CC5)n(-c5cccc(N=S(C)(C)=O)n5)c4n3)cc2)CC1 [Example 108] | 7.15
